Molecular target: Peroxisome proliferator-activated receptor alpha (Homo sapiens) (UniProt Q07869)
Sequence (whole entry): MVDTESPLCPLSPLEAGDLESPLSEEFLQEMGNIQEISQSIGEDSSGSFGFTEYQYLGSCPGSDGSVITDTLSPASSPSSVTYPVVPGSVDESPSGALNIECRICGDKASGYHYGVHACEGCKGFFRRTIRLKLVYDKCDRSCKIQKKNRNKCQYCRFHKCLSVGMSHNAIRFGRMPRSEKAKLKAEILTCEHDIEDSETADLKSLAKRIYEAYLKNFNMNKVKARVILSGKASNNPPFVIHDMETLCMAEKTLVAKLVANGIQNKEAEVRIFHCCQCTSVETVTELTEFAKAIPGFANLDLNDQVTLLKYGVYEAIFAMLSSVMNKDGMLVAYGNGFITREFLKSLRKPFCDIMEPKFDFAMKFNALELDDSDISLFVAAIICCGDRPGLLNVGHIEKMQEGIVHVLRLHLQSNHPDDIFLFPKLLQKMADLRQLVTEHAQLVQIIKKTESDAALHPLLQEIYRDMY
Assay: Agonist potency at PPARalpha expressed in CV1 cells relative to GW-590735
Format: functional, cell-based
Conditions: CV-1
measurement_name: Activity (%)

Sample answers from the record:
>  <structure_notation>
Cc1cc(SCc2sc(-c3ccc(C(F)(F)F)cc3)nc2C)ccc1OCC(=O)O

>  <Activity, %>
108

$$$$
>  <structure_notation>
Cc1nc(-c2ccc(C(F)(F)F)cc2)sc1CCc1ccc(OC(C)(C)C(=O)O)cc1

>  <Activity, %>
138

$$$$
>  <structure_notation>
Cc1nc(-c2ccccc2C(F)(F)F)sc1C(=O)NCc1ccc(OC(C)(C)C(=O)O)cc1

>  <Activity, %>
82

$$$$
>  <structure_notation>
CC(C)(Oc1ccc(CNC(=O)c2sc(-c3ccc(C(F)(F)F)cc3)nc2C(F)(F)F)cc1)C(=O)O

>  <Activity, %>
98

$$$$
>  <structure_notation>
Cc1nc(-c2ccc(F)cc2)sc1C(=O)NCc1ccc(OC(C)(C)C(=O)O)cc1

>  <Activity, %>
118

$$$$
>  <structure_notation>
Cc1nc(C(=O)NCc2ccc(OC(C)(C)C(=O)O)cc2)c(C)s1

>  <Activity, %>
171

$$$$

(A) Cc1nc(-c2ccc(C(F)(F)F)cc2)sc1CNCc1ccc(OC(C)(C)C(=O)O)cc1
(B) Cc1nc(-c2ccc(C(C)(C)C)cc2)sc1C(=O)NCc1ccc(OC(C)(C)C(=O)O)cc1
In: Pick the one with the larger Activity: A vs B State the label of the item chosen.
Out: A
(A: 110%, B: 66%)

----------
Assay: Volume of distribution in Beagle dog at 2 mg/kg, iv
Assay type: ADME, organism-based, Canis lupus familiaris
Parameters: dose 2 mg/kg, route intravenous
Settings: in vivo, read-out: Vdss
measurement_name: Vd (L/kg)
The reply should be a number in L/kg, with the unit left off.

In: For the molecule shown here, Cc1nc(-c2ccc(C(F)(F)F)cc2)sc1C(=O)NCc1ccc(OC(C)(C)C(=O)O)cc1 , give the reported Vd.
Out: 2.8

----------
Biological target: Peroxisome proliferator-activated receptor gamma (Homo sapiens, UniProt P37231)
Sequence (P37231 whole entry): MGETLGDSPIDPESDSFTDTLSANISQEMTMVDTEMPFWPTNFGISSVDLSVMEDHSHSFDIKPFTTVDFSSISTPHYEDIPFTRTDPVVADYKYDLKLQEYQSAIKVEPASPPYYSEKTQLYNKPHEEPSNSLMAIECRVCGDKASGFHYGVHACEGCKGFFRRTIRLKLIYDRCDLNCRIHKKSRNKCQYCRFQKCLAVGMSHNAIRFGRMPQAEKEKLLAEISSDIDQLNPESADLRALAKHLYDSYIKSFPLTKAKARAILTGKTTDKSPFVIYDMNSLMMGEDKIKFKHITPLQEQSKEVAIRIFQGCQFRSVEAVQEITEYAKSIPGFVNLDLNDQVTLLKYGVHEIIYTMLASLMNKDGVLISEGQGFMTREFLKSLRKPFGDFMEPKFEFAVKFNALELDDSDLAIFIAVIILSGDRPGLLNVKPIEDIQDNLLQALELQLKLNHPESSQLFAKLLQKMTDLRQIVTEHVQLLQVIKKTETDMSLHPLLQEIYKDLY
pEC50: −log10 of the molar value.
measurement_name: pEC50

Sample answers from the record:
>  <structure_notation>
Cc1nc(-c2ccc(C(F)(F)F)cc2)sc1C(=O)NCc1ccc(OC(C)(C)C(=O)O)cc1

>  <pEC50>
< 5.00

$$$$
>  <structure_notation>
Cc1nc(-c2ccc(C(F)(F)F)cc2)sc1C(=O)N(C)Cc1ccc(OC(C)(C)C(=O)O)cc1

>  <pEC50>
< 5.00

$$$$
>  <structure_notation>
Cc1nc(-c2ccc([N+](=O)[O-])cc2)sc1C(=O)NCc1ccc(OC(C)(C)C(=O)O)cc1

>  <pEC50>
< 5.00

$$$$
>  <structure_notation>
Cc1nc(-c2ccc(C(F)(F)F)cc2)sc1CNCc1ccc(OC(C)(C)C(=O)O)cc1

>  <pEC50>
< 5.00

$$$$
>  <structure_notation>
Cc1nc(-c2ccc(OS(C)(=O)=O)cc2)sc1C(=O)NCc1ccc(OC(C)(C)C(=O)O)cc1

>  <pEC50>
< 5.00

$$$$
>  <structure_notation>
Cc1nc(-c2ccc(OC(F)(F)F)cc2)sc1C(=O)NCc1ccc(OC(C)(C)C(=O)O)cc1

>  <pEC50>
< 5.00

$$$$
>  <structure_notation>
Cc1nc(-c2ccccc2C(F)(F)F)sc1C(=O)NCc1ccc(OC(C)(C)C(=O)O)cc1

>  <pEC50>
< 4.60

$$$$
>  <structure_notation>
Cc1nc(-c2ccc(C(F)(F)F)cc2)sc1CCc1ccc(OC(C)(C)C(=O)O)cc1

>  <pEC50>
5.73

$$$$
>  <structure_notation>
COc1ccc(-c2nc(C)c(C(=O)NCc3ccc(OC(C)(C)C(=O)O)cc3)s2)cc1

>  <pEC50>
< 5.00

$$$$
>  <structure_notation>
Cc1nc(-c2ccc(C(C)(C)C)cc2)sc1C(=O)NCc1ccc(OC(C)(C)C(=O)O)cc1

>  <pEC50>
6.07

$$$$

In the following, a different compound is considered.
In: For the compound shown here, Cc1nc(-c2ccc(C(F)(F)F)cc2)sc1CNC(=O)c1ccc(OC(C)(C)C(=O)O)cc1 , give the reported pEC50.
Out: < 5.00

----------
Target: Peroxisome proliferator-activated receptor alpha (Mus musculus)
Sequence (P23204 whole entry): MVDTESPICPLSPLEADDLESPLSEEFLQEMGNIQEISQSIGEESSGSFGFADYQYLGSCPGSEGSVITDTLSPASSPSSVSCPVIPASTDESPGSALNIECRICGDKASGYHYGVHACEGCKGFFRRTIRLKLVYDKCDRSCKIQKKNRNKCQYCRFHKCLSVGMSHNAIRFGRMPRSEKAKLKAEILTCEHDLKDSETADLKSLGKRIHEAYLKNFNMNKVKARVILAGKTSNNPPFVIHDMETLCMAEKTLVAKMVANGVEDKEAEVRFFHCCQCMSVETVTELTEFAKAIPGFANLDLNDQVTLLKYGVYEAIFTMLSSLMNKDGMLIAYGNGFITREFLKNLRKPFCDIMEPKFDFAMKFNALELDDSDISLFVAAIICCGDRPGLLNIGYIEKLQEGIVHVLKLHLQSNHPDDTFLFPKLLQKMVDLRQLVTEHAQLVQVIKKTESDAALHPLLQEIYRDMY
measurement_name: EC50 (nM)
The reply should be a number in nM, with the unit left off.

In: For the compound shown here, Cc1nc(-c2ccc(C(F)(F)F)cc2)sc1C(=O)NCc1ccc(OC(C)(C)C(=O)O)cc1 [GW590735] , give the reported EC50.
Out: 15

----------
Assay: Plasma clearance in Wistar rat at 2.7 mg/kg, iv
Format: ADME, organism-based
Set-up: dose 2.7 mg/kg, route intravenous
measurement_name: clearance (mL/min/kg)
The reply should be a number in mL/min/kg, with the unit left off.

In: For the molecule shown here, Cc1nc(-c2ccc(C(F)(F)F)cc2)sc1C(=O)NCc1ccc(OC(C)(C)C(=O)O)cc1 , give the reported clearance.
Out: 5

----------
Biological target: Peroxisome proliferator-activated receptor alpha (Homo sapiens)
Sequence (whole entry): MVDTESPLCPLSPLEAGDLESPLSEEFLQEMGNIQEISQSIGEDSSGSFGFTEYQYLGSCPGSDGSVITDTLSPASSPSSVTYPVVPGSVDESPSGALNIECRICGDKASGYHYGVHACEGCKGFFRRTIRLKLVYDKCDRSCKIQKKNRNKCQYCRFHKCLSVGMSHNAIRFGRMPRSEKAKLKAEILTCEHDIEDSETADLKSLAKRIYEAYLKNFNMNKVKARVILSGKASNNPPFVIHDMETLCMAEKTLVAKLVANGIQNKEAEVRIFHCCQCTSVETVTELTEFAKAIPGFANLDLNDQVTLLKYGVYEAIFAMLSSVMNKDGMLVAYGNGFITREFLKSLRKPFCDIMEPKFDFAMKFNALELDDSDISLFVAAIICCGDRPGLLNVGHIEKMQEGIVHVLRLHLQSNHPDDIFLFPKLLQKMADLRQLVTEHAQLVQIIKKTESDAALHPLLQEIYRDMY
Assay: Agonist potency at PPARalpha expressed in CV1 cells relative to GW-590735
Assay type: functional, cell-based
Conditions: CV-1
measurement_name: Activity (%)

Sample answers from the record:
>  <structure_notation>
Cc1nc(-c2ccc(C(F)(F)F)cc2)sc1C(=O)NCCc1ccc(OC(C)(C)C(=O)O)cc1

>  <Activity (%)>
129

$$$$
>  <structure_notation>
Cc1nc(-c2ccc(C(F)(F)F)cc2)sc1CNC(=O)c1ccc(OC(C)(C)C(=O)O)cc1

>  <Activity (%)>
109

$$$$
>  <structure_notation>
Cc1cc(CCc2sc(-c3ccc(C(F)(F)F)cc3)nc2C)ccc1OCC(=O)O

>  <Activity (%)>
85

$$$$
>  <structure_notation>
Cc1nc(-c2ccc(C(F)(F)F)cc2)sc1C(=O)Nc1ccc(OC(C)(C)C(=O)O)cc1

>  <Activity (%)>
69

$$$$
>  <structure_notation>
Cc1nc(-c2ccc(C(F)(F)F)cc2)sc1C(=O)NCc1ccc(OC(C)(C)C(=O)O)cc1

>  <Activity (%)>
95

$$$$

(P) Cc1nc(-c2cccc(C(F)(F)F)c2)sc1C(=O)NCc1ccc(OC(C)(C)C(=O)O)cc1
(Q) Cc1nc(-c2ccc(N)cc2)sc1C(=O)NCc1ccc(OC(C)(C)C(=O)O)cc1
In: I'm curious whether P or Q has the smaller Activity number. Which is it? State the label of the item chosen.
Out: Q
(Q: 67%, P: 106%)
